Quick reference: relative viability of the listed items.
# Tested on: HCC-366
# assay_summary: relative viability (nuclei count vs DMSO), 5 days (fraction); higher = more cells survive
# condition_notes: first compound 0.04 µM

molecule	relative viability
Clc1ccc(Nc2nnc(Cc3ccncc3)c3ccccc23)cc1 [Vatalanib] + CS(=O)(=O)CCNCc1ccc(-c2ccc3ncnc(Nc4ccc(OCc5cccc(F)c5)c(Cl)c4)c3c2)o1 [Lapatinib] (partner 2 µM)	1.02
COc1cc(N2CCC(C(N)=O)CC2)ccc1Nc1nc(N)c(Cl)c(Nc2ccccc2S(=O)(=O)C(C)C)n1 [HG-5-88-01] + COc1cc2c(Oc3ccc(NC(=O)C4(C(=O)Nc5ccc(F)cc5)CC4)cc3F)ccnc2cc1OCCCN1CCOCC1 [Foretinib] (partner 0.25 µM)	0.955

###

relative viability listing for selected compounds.
# Test system: NCI-H1395
# assay_summary: relative viability (nuclei count vs DMSO), 5 days (fraction); higher = more cells survive
# condition_notes: first compound 0.03162 µM
assay_metric: relative viability

compound	assay_metric	recorded_measurement
CC(C)Oc1cc(Nc2nc(N[C@@H](C)c3ccc(F)cn3)ncc2Cl)n[nH]1 [AZ23] + C[C@]1(O)C[C@@H](c2nc(-c3ccc4ccc(-c5ccccc5)nc4c3)c3c(N)nccn32)C1 [Linsitinib] (partner 1 µM)	relative viability	1.09
CC(C)Oc1cc(Nc2nc(N[C@@H](C)c3ccc(F)cn3)ncc2Cl)n[nH]1 [AZ23] + O=C(c1cc(Cc2n[nH]c(=O)c3ccccc23)ccc1F)N1CCN(C(=O)C2CC2)CC1 [Olaparib] (partner 8 µM)	relative viability	0.424

###

# relative viability values compiled below
# System: UMC-11
# assay_summary: relative viability (nuclei count vs DMSO), 5 days (fraction); higher = more cells survive
# condition_notes: first compound 0.4 µM
assay_metric: relative viability

compound	recorded_measurement
Clc1ccc(Nc2nnc(Cc3ccncc3)c3ccccc23)cc1 [Vatalanib] + CCNC(=O)c1noc(-c2cc(C(C)C)c(O)cc2O)c1-c1ccc(CN2CCOCC2)cc1 [Luminespib] (partner 0.01 µM)	0.996
Clc1ccc(Nc2nnc(Cc3ccncc3)c3ccccc23)cc1 [Vatalanib] + O=C(c1cc(Cc2n[nH]c(=O)c3ccccc23)ccc1F)N1CCN(C(=O)C2CC2)CC1 [Olaparib] (partner 8 µM)	0.318
Clc1ccc(Nc2nnc(Cc3ccncc3)c3ccccc23)cc1 [Vatalanib] + Nc1nc2[nH]cc(CCc3ccc(C(=O)N[C@@H](CCC(=O)O)C(=O)O)cc3)c2c(=O)[nH]1 [Pemetrexed] (partner 0.2 µM)	0.844
Clc1ccc(Nc2nnc(Cc3ccncc3)c3ccccc23)cc1 [Vatalanib] + Cc1cc(Nc2cc(N3CCN(C)CC3)nc(Sc3ccc(NC(=O)C4CC4)cc3)n2)n[nH]1 [Tozasertib] (partner 0.1 µM)	0.147
COc1cc(N2CCC(C(N)=O)CC2)ccc1Nc1nc(N)c(Cl)c(Nc2ccccc2S(=O)(=O)C(C)C)n1 [HG-5-88-01] + CC1(C)CCC(c2ccc(Cl)cc2)=C(CN2CCN(c3ccc(C(=O)NS(=O)(=O)c4ccc(N[C@H](CCN5CCOCC5)CSc5ccccc5)c(S(=O)(=O)C(F)(F)F)c4)cc3)CC2)C1 [Navitoclax] (partner 0.5 µM)	0.333
COc1cc(N2CCC(C(N)=O)CC2)ccc1Nc1nc(N)c(Cl)c(Nc2ccccc2S(=O)(=O)C(C)C)n1 [HG-5-88-01] + CC(=O)c1c(C)c2cnc(Nc3ccc(N4CCNCC4)cn3)nc2n(C2CCCC2)c1=O [Palbociclib] (partner 0.5 µM)	0.297
COc1cc(N2CCC(C(N)=O)CC2)ccc1Nc1nc(N)c(Cl)c(Nc2ccccc2S(=O)(=O)C(C)C)n1 [HG-5-88-01] + Cc1nc(NC(=O)N2CCC[C@H]2C(N)=O)sc1-c1ccnc(C(C)(C)C(F)(F)F)c1 [Alpelisib] (partner 2 µM)	0.998
Clc1ccc(Nc2nnc(Cc3ccncc3)c3ccccc23)cc1 [Vatalanib] + N=C(N)NC(=N)NCCc1ccccc1 [Phenformin] (partner 250 µM)	0.319
Clc1ccc(Nc2nnc(Cc3ccncc3)c3ccccc23)cc1 [Vatalanib] + CS(=O)(=O)CCNCc1ccc(-c2ccc3ncnc(Nc4ccc(OCc5cccc(F)c5)c(Cl)c4)c3c2)o1 [Lapatinib] (partner 2 µM)	0.976
C[C@@H]1CN(CC(=O)Nc2ccc3c(c2)Cc2cccc(-c4cc(=O)cc(N5CCOCC5)o4)c2S3)C[C@H](C)O1 + N=C(N)NC(=N)NCCc1ccccc1 [Phenformin] (partner 250 µM)	0.338
Clc1ccc(Nc2nnc(Cc3ccncc3)c3ccccc23)cc1 [Vatalanib] + CC(=O)c1c(C)c2cnc(Nc3ccc(N4CCNCC4)cn3)nc2n(C2CCCC2)c1=O [Palbociclib] (partner 0.5 µM)	0.34
C[C@@H]1CN(CC(=O)Nc2ccc3c(c2)Cc2cccc(-c4cc(=O)cc(N5CCOCC5)o4)c2S3)C[C@H](C)O1 + CS(=O)(=O)N1CCN(Cc2cc3nc(-c4cccc5[nH]ncc45)nc(N4CCOCC4)c3s2)CC1 [Pictilisib] (partner 1 µM)	0.75
COc1cc(N2CCC(C(N)=O)CC2)ccc1Nc1nc(N)c(Cl)c(Nc2ccccc2S(=O)(=O)C(C)C)n1 [HG-5-88-01] + C[C@@H](Oc1cc(-c2cnn(C3CCNCC3)c2)cnc1N)c1c(Cl)ccc(F)c1Cl [Crizotinib] (partner 1 µM)	0.621

###

# Test system: NCI-H1944
# assay_summary: relative viability (nuclei count vs DMSO), 5 days (fraction); higher = more cells survive
# condition_notes: first compound 1.265 µM

compound	relative viability
Clc1ccc(Nc2nnc(Cc3ccncc3)c3ccccc23)cc1 [Vatalanib] + COc1cccc2cc(-c3nc([C@H]4CC[C@H](C(=O)O)CC4)n4ncnc(N)c34)[nH]c12 [OSI-027] (partner 0.5 µM)	0.411
COc1cc(N2CCC(C(N)=O)CC2)ccc1Nc1nc(N)c(Cl)c(Nc2ccccc2S(=O)(=O)C(C)C)n1 [HG-5-88-01] + Cc1nc(Nc2ncc(C(=O)Nc3c(C)cccc3Cl)s2)cc(N2CCN(CCO)CC2)n1 [Dasatinib] (partner 0.075 µM)	0.191
COc1cc(N2CCC(C(N)=O)CC2)ccc1Nc1nc(N)c(Cl)c(Nc2ccccc2S(=O)(=O)C(C)C)n1 [HG-5-88-01] + O=C(c1cc(Cc2n[nH]c(=O)c3ccccc23)ccc1F)N1CCN(C(=O)C2CC2)CC1 [Olaparib] (partner 8 µM)	0.466
Clc1ccc(Nc2nnc(Cc3ccncc3)c3ccccc23)cc1 [Vatalanib] + CS(=O)(=O)CCNCc1ccc(-c2ccc3ncnc(Nc4ccc(OCc5cccc(F)c5)c(Cl)c4)c3c2)o1 [Lapatinib] (partner 2 µM)	0.804

###

# System: RERF-LC-KJ
# assay_summary: relative viability (nuclei count vs DMSO), 5 days (fraction); higher = more cells survive
# condition_notes: first compound 0.8 µM
assay_metric: relative viability

compound	recorded_measurement
CCCCCCCCCCCC1=C(O)C(=O)C=C(O)C1=O [Embelin] + CC(=O)c1c(C)c2cnc(Nc3ccc(N4CCNCC4)cn3)nc2n(C2CCCC2)c1=O [Palbociclib] (partner 0.5 µM)	1.15
CCCCCCCCCCCC1=C(O)C(=O)C=C(O)C1=O [Embelin] + Nc1nc2[nH]cc(CCc3ccc(C(=O)N[C@@H](CCC(=O)O)C(=O)O)cc3)c2c(=O)[nH]1 [Pemetrexed] (partner 0.2 µM)	0.498
CCCCCCCCCCCC1=C(O)C(=O)C=C(O)C1=O [Embelin] + N=C(N)NC(=N)NCCc1ccccc1 [Phenformin] (partner 250 µM)	0.461
CCCCCCCCCCCC1=C(O)C(=O)C=C(O)C1=O [Embelin] + CC1(C)CCC(c2ccc(Cl)cc2)=C(CN2CCN(c3ccc(C(=O)NS(=O)(=O)c4ccc(N[C@H](CCN5CCOCC5)CSc5ccccc5)c(S(=O)(=O)C(F)(F)F)c4)cc3)CC2)C1 [Navitoclax] (partner 0.5 µM)	1.14
CCCCCCCCCCCC1=C(O)C(=O)C=C(O)C1=O [Embelin] + O=C(CCCCCCC(=O)Nc1ccccc1)NO [Vorinostat] (partner 1 µM)	0.769
CCCCCCCCCCCC1=C(O)C(=O)C=C(O)C1=O [Embelin] + Cc1nc(Nc2ncc(C(=O)Nc3c(C)cccc3Cl)s2)cc(N2CCN(CCO)CC2)n1 [Dasatinib] (partner 0.075 µM)	0.983

###

# System: LU99A
# assay_summary: relative viability (nuclei count vs DMSO), 5 days (fraction); higher = more cells survive
# condition_notes: first compound 0.4 µM
Entries and their relative viability

compound	relative viability
COc1cc(N2CCC(C(N)=O)CC2)ccc1Nc1nc(N)c(Cl)c(Nc2ccccc2S(=O)(=O)C(C)C)n1 [HG-5-88-01] + COc1cccc2cc(-c3nc([C@H]4CC[C@H](C(=O)O)CC4)n4ncnc(N)c34)[nH]c12 [OSI-027] (partner 0.5 µM)	0.286
C[C@@H]1CN(CC(=O)Nc2ccc3c(c2)Cc2cccc(-c4cc(=O)cc(N5CCOCC5)o4)c2S3)C[C@H](C)O1 + COc1cc2c(Oc3ccc(NC(=O)C4(C(=O)Nc5ccc(F)cc5)CC4)cc3F)ccnc2cc1OCCCN1CCOCC1 [Foretinib] (partner 0.25 µM)	1.02
COc1cc(N2CCC(C(N)=O)CC2)ccc1Nc1nc(N)c(Cl)c(Nc2ccccc2S(=O)(=O)C(C)C)n1 [HG-5-88-01] + CC(=O)c1c(C)c2cnc(Nc3ccc(N4CCNCC4)cn3)nc2n(C2CCCC2)c1=O [Palbociclib] (partner 0.5 µM)	0.384
C[C@@H]1CN(CC(=O)Nc2ccc3c(c2)Cc2cccc(-c4cc(=O)cc(N5CCOCC5)o4)c2S3)C[C@H](C)O1 + CC1(C)CCC(c2ccc(Cl)cc2)=C(CN2CCN(c3ccc(C(=O)NS(=O)(=O)c4ccc(N[C@H](CCN5CCOCC5)CSc5ccccc5)c(S(=O)(=O)C(F)(F)F)c4)cc3)CC2)C1 [Navitoclax] (partner 0.5 µM)	0.926
C[C@@H]1CN(CC(=O)Nc2ccc3c(c2)Cc2cccc(-c4cc(=O)cc(N5CCOCC5)o4)c2S3)C[C@H](C)O1 + NC(=O)Nc1cc(-c2cccc(F)c2)sc1C(=O)N[C@H]1CCCNC1 [AZD7762] (partner 0.2 µM)	0.465
Clc1ccc(Nc2nnc(Cc3ccncc3)c3ccccc23)cc1 [Vatalanib] + CC(=O)c1c(C)c2cnc(Nc3ccc(N4CCNCC4)cn3)nc2n(C2CCCC2)c1=O [Palbociclib] (partner 0.5 µM)	0.435
COc1cc(N2CCC(C(N)=O)CC2)ccc1Nc1nc(N)c(Cl)c(Nc2ccccc2S(=O)(=O)C(C)C)n1 [HG-5-88-01] + O=C(CCCCCCC(=O)Nc1ccccc1)NO [Vorinostat] (partner 1 µM)	0.522
Clc1ccc(Nc2nnc(Cc3ccncc3)c3ccccc23)cc1 [Vatalanib] + Cc1cc(Nc2cc(N3CCN(C)CC3)nc(Sc3ccc(NC(=O)C4CC4)cc3)n2)n[nH]1 [Tozasertib] (partner 0.1 µM)	0.305
